STUDY_TARGET: T1, mouse MAdCAM expressed on cells (mouse, UniProt Q61826 22-405)
T1 construct: whole, on cells
T1 sequence (looked up): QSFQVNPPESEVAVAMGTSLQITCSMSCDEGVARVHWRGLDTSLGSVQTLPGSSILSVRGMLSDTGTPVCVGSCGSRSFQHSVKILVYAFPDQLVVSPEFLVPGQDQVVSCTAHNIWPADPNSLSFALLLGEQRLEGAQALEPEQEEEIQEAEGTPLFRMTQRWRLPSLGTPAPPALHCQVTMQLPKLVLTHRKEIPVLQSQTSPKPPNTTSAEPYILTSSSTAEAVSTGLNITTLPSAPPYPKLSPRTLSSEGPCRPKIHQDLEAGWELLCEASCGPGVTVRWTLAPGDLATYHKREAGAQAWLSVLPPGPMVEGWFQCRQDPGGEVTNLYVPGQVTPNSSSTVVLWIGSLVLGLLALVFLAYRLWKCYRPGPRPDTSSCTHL
PROCEDURE_DETAILS: cell binding
ENDPOINT_NAME: binding result

Examples with their reported binding result follow.
MAdCAM antibody Clone ID 42 of Table 7 (IgG) (antibody, V domains shown, IgG format) VH: QVQLVQSGAEVKKPGASVKVSCKASGYTLTDYYMHWVRQAPGQGLEWMGIINPSGGSTSYAQKFQGRVTMTRDTSTSTVYMELSSLRSEDTAVYYCAREEYSSSSGYFDYWGQGTLVTVSS VL: DIQMTQSPSSLSASVGDRVTITCRASQGISSWLAWYQQKPGKAPKLLIYAASSLQSGVPSRFSGSGSGTDFTLTISSLQPEDFATYYCQQSYSTPLTFGQGTKVEIK    no binding
MAdCAM antibody Clone ID 35 of Table 7 (IgG) (antibody, V domains shown, IgG format) VH: QVQLVQSGAEVKKPGASVKVSCKASGYTFTGYYIHWVRQAPGQGLEWMGWMNPNSGNTGYAQKFQGRVTMTRDTSTSTVYMELSSLRSEDTAVYYCARDPGFLGYSSGGSSYDGWFDPWGQGTLVTVSS VL: DIQMTQSPSSLSASVGDRVTITCRASQSISSYLHWYQQKPGKAPKLLIYAASSLQSGVPSRFSGSGSGTDFTLTISSLQPEDFATYYCQQSYTAPYTFGQGTKLEIK    no binding
MAdCAM antibody Clone ID 34 of Table 7 (IgG) (antibody, V domains shown, IgG format) VH: QVQLVQSGAEVKKPGASVKVSCKASGYTFTGYYIHWVRQAPGQGLEWMGWMNPNSGNTGYAQKFQGRVTMTRDTSTSTVYMELSSLRSEDTAVYYCARDPGFLGYCSGGSCYDGWFDPWGQGTLVTVSS VL: DIQMTQSPSSLSASVGDRVTITCRASQSISSYLHWYQQKPGKAPKLLIYAASSLQSGVPSRFSGSGSGTDFTLTISSLQPEDFATYYCQQSYTAPYTFGQGTKLEIK    no binding
MAdCAM antibody Clone ID 32 of Table 7 (IgG) (antibody, V domains shown, IgG format) VH: QVQLVQSGAEVKKPGASVKVSCKASGYTLTTWYMYWVRQAPGQGLEWMGWINPNRGATNYAQKFQGRVTMTRDTSTSTVYMELSSLRSEDTAVYYCAKGDLWGAMDVWGQGTLVTVSS VL: DIQMTQSPSSLSASVGDRVTITCRASDNIGSWLAWYQQKPGKAPKLLIYAASSLQSGVPSRFSGSGSGTDFTLTISSLQPEDFATYYCQQGYSTPPTFGQGTKVEIK    no binding

Could you now consider this next binder?
Input MAdCAM antibody Clone ID 64 of Table 7 (IgG) (antibody, V domains shown, IgG format) VH: EVQLLESGGGLVQPGGSLRLSCAASGFTFSNSDMNWVRQAPGKGLEWVAHIWNDGSQKYYADSVKGRFTISRDNSKNTLYLQMNSLRAEDTAVYYCARDRTDPGYSSAMDVWGQGTTVTVSS VL: DIQMTQSPSSLSASVGDRVTITCRASQDIRNYLGWYQQKPGKAPKLLIYDASSLETGVPSRFSGSGSGTDFTLTISSLQPEDFATYYCQQATSLPLTFGGGTKVEIK . Output binding result: no binding
